- ASSAY SYSTEM: TLR1/TLR2 (Mus musculus, UniProt Q9EPQ1+Q9QUN7)
- Sequence (Q9EPQ1 26-795): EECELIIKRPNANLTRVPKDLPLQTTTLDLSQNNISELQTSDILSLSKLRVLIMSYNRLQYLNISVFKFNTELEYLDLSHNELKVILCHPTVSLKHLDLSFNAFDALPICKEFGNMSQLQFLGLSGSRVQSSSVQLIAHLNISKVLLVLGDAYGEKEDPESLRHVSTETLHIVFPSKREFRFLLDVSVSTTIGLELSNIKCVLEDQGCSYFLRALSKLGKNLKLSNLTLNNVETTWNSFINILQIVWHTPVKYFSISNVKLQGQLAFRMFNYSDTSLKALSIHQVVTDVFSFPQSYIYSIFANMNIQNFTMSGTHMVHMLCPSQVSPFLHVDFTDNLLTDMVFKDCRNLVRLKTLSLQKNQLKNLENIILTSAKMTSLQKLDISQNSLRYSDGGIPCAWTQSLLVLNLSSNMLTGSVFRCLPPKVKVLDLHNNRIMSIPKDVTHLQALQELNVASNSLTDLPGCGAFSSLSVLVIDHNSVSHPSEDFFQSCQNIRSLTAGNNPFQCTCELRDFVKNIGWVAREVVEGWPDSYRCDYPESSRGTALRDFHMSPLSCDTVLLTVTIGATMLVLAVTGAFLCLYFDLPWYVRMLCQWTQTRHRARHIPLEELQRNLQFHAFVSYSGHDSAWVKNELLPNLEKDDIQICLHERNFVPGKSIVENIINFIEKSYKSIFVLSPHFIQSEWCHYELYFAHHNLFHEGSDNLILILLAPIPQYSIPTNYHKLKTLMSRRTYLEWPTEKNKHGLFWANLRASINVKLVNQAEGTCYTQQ
- Sequence (Q9QUN7 25-784): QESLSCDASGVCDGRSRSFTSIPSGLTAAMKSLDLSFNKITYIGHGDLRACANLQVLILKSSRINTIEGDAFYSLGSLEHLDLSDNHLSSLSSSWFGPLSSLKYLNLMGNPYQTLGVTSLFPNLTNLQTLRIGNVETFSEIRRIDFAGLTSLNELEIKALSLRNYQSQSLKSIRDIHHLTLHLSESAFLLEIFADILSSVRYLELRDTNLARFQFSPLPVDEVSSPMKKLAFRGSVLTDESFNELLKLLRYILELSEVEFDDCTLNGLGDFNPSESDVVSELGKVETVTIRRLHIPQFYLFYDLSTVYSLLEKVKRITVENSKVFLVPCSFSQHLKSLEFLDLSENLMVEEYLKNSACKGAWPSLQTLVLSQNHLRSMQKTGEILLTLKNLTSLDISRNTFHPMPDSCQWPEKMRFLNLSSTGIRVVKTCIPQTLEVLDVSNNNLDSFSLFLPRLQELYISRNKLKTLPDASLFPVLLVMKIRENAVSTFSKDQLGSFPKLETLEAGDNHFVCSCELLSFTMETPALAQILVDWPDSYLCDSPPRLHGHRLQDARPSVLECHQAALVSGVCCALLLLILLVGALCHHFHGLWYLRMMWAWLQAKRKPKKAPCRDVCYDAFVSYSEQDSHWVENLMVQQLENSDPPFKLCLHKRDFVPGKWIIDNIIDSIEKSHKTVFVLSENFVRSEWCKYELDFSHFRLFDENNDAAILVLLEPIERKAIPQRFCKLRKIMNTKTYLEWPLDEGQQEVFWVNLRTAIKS
- ASSAY EXPLANATION: TNF-α release from thioglycolate-elicited mouse peritoneal macrophages (ELISA)
- TEST SETTINGS: read-out: EC50 (nM) (mouse): EC50 TNF-α release from mouse macrophages; Table 5
MEASURE: EC50 (nM)

Record excerpt, results attached:
[[record]]
item_smiles = "CC(C)(C)OC(=O)NNC(=O)OCCCCCCCCCCCCNC(=O)[C@@H]1CN(C(=O)c2ccc(C(=O)N3C[C@@H](C(=O)N[C@H]4C[C@@H]4c4ccccc4)[C@H](C(=O)N[C@H]4C[C@@H]4c4ccccc4)C3)cc2)C[C@H]1C(=O)N[C@H]1C[C@@H]1c1ccccc1"
assay_system = "TLR1/TLR2 (Mus musculus, UniProt Q9EPQ1+Q9QUN7)"
unit_symbol = "nM"
numeric_value = 25

[[record]]
item_smiles = "CC(C)[C@H](NC(=O)OC(C)(C)C)C(=O)OCCCCCCCCCCCCNC(=O)[C@@H]1CN(C(=O)c2ccc(C(=O)N3C[C@@H](C(=O)N[C@H]4C[C@@H]4c4ccccc4)[C@H](C(=O)N[C@H]4C[C@@H]4c4ccccc4)C3)cc2)C[C@H]1C(=O)N[C@H]1C[C@@H]1c1ccccc1"
assay_system = "TLR1/TLR2 (Mus musculus, UniProt Q9EPQ1+Q9QUN7)"
unit_symbol = "nM"
numeric_value = 19

[[record]]
item_smiles = "CC[C@H](C)[C@H](NC(=O)OC(C)(C)C)C(=O)OCCCCCCCCCCCCNC(=O)[C@@H]1CN(C(=O)c2ccc(C(=O)N3C[C@@H](C(=O)N[C@H]4C[C@@H]4c4ccccc4)[C@H](C(=O)N[C@H]4C[C@@H]4c4ccccc4)C3)cc2)C[C@H]1C(=O)N[C@H]1C[C@@H]1c1ccccc1"
assay_system = "TLR1/TLR2 (Mus musculus, UniProt Q9EPQ1+Q9QUN7)"
unit_symbol = "nM"
numeric_value = 50


(A) CC(C)(C)OC(=O)N[C@@H](Cc1ccccc1)C(=O)OCCCCCCCCCCCCNC(=O)[C@@H]1CN(C(=O)c2ccc(C(=O)N3C[C@@H](C(=O)N[C@H]4C[C@@H]4c4ccccc4)[C@H](C(=O)N[C@H]4C[C@@H]4c4ccccc4)C3)cc2)C[C@H]1C(=O)N[C@H]1C[C@@H]1c1ccccc1
(B) C[C@@H](NC(=O)OC(C)(C)C)C(=O)OCCCCCCCCCCCCNC(=O)[C@@H]1CN(C(=O)c2ccc(C(=O)N3C[C@@H](C(=O)N[C@H]4C[C@@H]4c4ccccc4)[C@H](C(=O)N[C@H]4C[C@@H]4c4ccccc4)C3)cc2)C[C@H]1C(=O)N[C@H]1C[C@@H]1c1ccccc1
Hi team, can someone confirm which has the larger EC50: A or B ? Thanks. # answer = label of selected item
A
(A: 40 nM, B: 5 nM)

* * *

- ASSAY SYSTEM: TLR1/TLR2 (Homo sapiens, UniProt O60603+Q15399)
- Sequence (Q15399 25-786): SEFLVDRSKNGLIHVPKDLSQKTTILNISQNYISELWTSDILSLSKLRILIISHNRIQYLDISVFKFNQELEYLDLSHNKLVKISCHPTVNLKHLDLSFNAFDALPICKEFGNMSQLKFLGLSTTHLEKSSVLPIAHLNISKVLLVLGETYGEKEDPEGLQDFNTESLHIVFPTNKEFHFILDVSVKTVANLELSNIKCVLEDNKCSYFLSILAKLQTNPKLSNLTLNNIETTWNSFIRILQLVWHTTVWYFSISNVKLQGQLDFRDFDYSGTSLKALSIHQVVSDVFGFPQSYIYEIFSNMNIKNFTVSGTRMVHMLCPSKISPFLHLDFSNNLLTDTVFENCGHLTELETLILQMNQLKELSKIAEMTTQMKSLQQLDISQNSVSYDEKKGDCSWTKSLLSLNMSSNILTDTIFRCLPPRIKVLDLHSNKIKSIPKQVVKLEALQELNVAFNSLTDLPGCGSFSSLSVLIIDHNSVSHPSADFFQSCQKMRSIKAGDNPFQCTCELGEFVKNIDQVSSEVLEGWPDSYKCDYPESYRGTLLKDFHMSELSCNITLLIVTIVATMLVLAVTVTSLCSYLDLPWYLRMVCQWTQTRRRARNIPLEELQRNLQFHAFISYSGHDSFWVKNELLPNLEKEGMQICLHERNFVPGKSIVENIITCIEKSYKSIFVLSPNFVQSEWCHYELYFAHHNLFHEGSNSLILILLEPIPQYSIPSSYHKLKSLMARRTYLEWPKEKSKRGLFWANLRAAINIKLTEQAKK
- Sequence (O60603 21-784): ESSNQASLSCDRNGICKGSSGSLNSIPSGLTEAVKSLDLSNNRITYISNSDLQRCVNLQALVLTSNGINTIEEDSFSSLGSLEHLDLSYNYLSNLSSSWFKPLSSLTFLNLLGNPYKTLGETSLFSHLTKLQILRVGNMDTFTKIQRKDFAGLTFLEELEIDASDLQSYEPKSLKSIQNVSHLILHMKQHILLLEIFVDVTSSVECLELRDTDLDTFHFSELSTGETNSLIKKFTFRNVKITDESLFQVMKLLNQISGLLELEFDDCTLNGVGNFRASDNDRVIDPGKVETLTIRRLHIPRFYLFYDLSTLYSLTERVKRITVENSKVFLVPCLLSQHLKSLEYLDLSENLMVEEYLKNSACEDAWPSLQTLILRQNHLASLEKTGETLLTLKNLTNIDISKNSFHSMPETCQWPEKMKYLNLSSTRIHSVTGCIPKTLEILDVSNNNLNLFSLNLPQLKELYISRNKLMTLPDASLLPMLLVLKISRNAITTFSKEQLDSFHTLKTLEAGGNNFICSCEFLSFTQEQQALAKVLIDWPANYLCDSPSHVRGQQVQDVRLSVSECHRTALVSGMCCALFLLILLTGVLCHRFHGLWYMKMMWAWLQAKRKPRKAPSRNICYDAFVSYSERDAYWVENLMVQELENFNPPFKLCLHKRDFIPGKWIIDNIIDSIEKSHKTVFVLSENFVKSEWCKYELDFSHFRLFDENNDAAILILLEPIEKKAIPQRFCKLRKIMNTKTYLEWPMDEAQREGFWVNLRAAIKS
- ASSAY EXPLANATION: TNF-α release from PMA-differentiated human THP-1 cells (ELISA);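 also: cells exposed to graded compound concentrations for 4 h, TNF-α quantified in supernatant, LPS as positive and DMSO as negative control, values are duplicate means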
- TEST SETTINGS: read-out: EC50 (nM) (THP-1): EC50 TNF-α release from human THP-1 cells; Table 6
MEASURE: EC50 (nM)

[[record]]
compound = "CC(C)(C)OC(=O)/C=C/C(=O)NCC(=O)OCCCCCCCCCCCCNC(=O)[C@@H]1CN(C(=O)c2ccc(C(=O)N3C[C@@H](C(=O)N[C@H]4C[C@@H]4c4ccccc4)[C@H](C(=O)N[C@H]4C[C@@H]4c4ccccc4)C3)cc2)C[C@H]1C(=O)N[C@H]1C[C@@H]1c1ccccc1 [Compound 81]"
numeric_value = 2


(a) O=C(O)/C=C/C(=O)NCC(=O)OCCCCCCCCCCCCNC(=O)[C@@H]1CN(C(=O)c2ccc(C(=O)N3C[C@@H](C(=O)N[C@H]4C[C@@H]4c4ccccc4)[C@H](C(=O)N[C@H]4C[C@@H]4c4ccccc4)C3)cc2)C[C@H]1C(=O)N[C@H]1C[C@@H]1c1ccccc1 [Compound 82]
(b) O=C(O)c1ccc(C(=O)OCCCCCCCCCCCCNC(=O)[C@@H]2CN(C(=O)c3ccc(C(=O)N4C[C@@H](C(=O)N[C@H]5C[C@@H]5c5ccccc5)[C@H](C(=O)N[C@H]5C[C@@H]5c5ccccc5)C4)cc3)C[C@H]2C(=O)N[C@H]2C[C@@H]2c2ccccc2)cc1 [Compound 78]
Identify the entry with the smaller EC50: a or b . // caller expects the label of the chosen entry
a

(P) O=C(CNC(=O)C(=O)O)OCCCCCCCCCCCCNC(=O)[C@@H]1CN(C(=O)c2ccc(C(=O)N3C[C@@H](C(=O)N[C@H]4C[C@@H]4c4ccccc4)[C@H](C(=O)N[C@H]4C[C@@H]4c4ccccc4)C3)cc2)C[C@H]1C(=O)N[C@H]1C[C@@H]1c1ccccc1 [Compound 84]
(Q) O=C(OCCCCCCCCCCCCNC(=O)[C@@H]1CN(C(=O)c2ccc(C(=O)N3C[C@@H](C(=O)N[C@H]4C[C@@H]4c4ccccc4)[C@H](C(=O)N[C@H]4C[C@@H]4c4ccccc4)C3)cc2)C[C@H]1C(=O)N[C@H]1C[C@@H]1c1ccccc1)c1ccc(O)cc1 [Compound 75]
(R) O=C(O)c1ccc(C(=O)NCCOCCCCCCCCCCCCNC(=O)[C@@H]2CN(C(=O)c3ccc(C(=O)N4C[C@@H](C(=O)N[C@H]5C[C@@H]5c5ccccc5)[C@H](C(=O)N[C@H]5C[C@@H]5c5ccccc5)C4)cc3)C[C@H]2C(=O)N[C@H]2C[C@@H]2c2ccccc2)cc1 [Compound 86]
Order the 3 compounds from highest to lowest EC50. Put the labels in the requested order and write them down.
R, Q, P
(R: 2.9 nM, Q: 1.7 nM, P: 0.23 nM)

src = patent US20250367166A1
